# System: S. feltiae
# CONDITIONS: 20 μl VOC, checked after 24 hr, sealed Petri dish
Mortality (%) (Mean ± SE) S. feltiae (Sf) vs 30%: less than gives t; not less than gives f.

COMPOUND	STUDY SYSTEM	CATEGORY LABEL
C=CCCCCCC [1-octene, reference compound]	S. feltiae	t
CCCCCC(=O)CC	S. feltiae	f
CCCCCCCCCCCCC	S. feltiae	f
C=CC(O)CCCCC (stereo not shown)	S. feltiae	f
COC(=O)CC(C)C [Methyl isovalerate]	S. feltiae	f
C=C(C)[C@H]1CC=C(C)CC1 [(R)-(+)-Limonene]	S. feltiae	t
CCCCCCCCCCC	S. feltiae	t

###

Mortality (%) (Mean ± SE) H. bacteriophora (Hb) values, listed per item
# System: H. bacteriophora
# CONDITIONS: 20 μl VOC, checked after 24 hr, sealed Petri dish
Structures can show the parent of a compound that is named as a salt.
MEASURED ATTRIBUTE: Mortality (%) (Mean ± SE) H. bacteriophora (Hb)

COMPOUND	RESULT
CCCCCC(=O)CC	100%
CC(C)CCOC=O [Isoamyl formate]	46.6±1.8%
COC(=O)CC(C)C [Methyl isovalerate]	55 ± 2.6%
CCCCCCCCCCCCC	4.1 ± 1.6%
C=C(C)[C@H]1CC=C(C)CC1 [(R)-(+)-Limonene]	5.9 ± 1.9%
C=CC(O)CCCCC (stereo not shown)	91.6±2.1%
C=CCCCCCC [1-octene, reference compound]	19.4 ± 3.8%
CCCCCCCCCCC	7.5 ± 2.7%
CC(C)CCO	9.7 ± 2.1%
CC(O)C(C)O (stereo not shown)	11.4 ± 2.3%

###

The entries below are paired with their reported Mortality (%) (Mean ± SE) S. feltiae (Sf).
# Test system: S. feltiae
# CONDITIONS: 20 μl VOC, checked after 24 hr, sealed Petri dish
Where a name gives a salt, the structure may show the parent alone.
MEASURED ATTRIBUTE: Mortality (%) (Mean ± SE) S. feltiae (Sf)

COMPOUND	READOUT NUMBER
CC(C)CCOC=O [Isoamyl formate]	58
CC(C)CCO	20.8
CC(O)C(C)O (stereo not drawn)	12.5

These measurements were taken from patent US20210029995A1.
